- protocol_summary: 14C assay with IPTG-induced recombinant E. coli cells (14CO2 capture from [14C]-carboxyl-labeled dicamba)
- assay_context: IPTG-induced recombinant E. coli cells; [14C]-carboxyl-labeled dicamba; 14CO2 capture
assay_readout: Dicamba Decarboxylase Activity

* 76 (protein, listed as Polymorphum gilvum) MAKKIDIFNHIWPEPFFKALIAHIGEMTDITMRSGAVPMMTNLDRRFEVMDMFGPDYMQVLSLASPPLEKLADPAKALELSRIGSDSLAELCQRYPERFPAFIGTAPLSNPAAVVGECRRAIEDLGAAGMQIFTNVAGKPLDLAEFEPFFEYMASAGKPVWLHPARGEAFADYQTEKRSEYEIWWTFGWPYETSAAMARLVFSRMFDKYPGLKVITHHAGGMVPFFEGRVGPGWDQMGARTTDRDLAAVRKALKRPHLDYFKEFYADTASFGSRKAIEHAIEFFGEDRVLFASDAPFDPEGGPMYIRETMRCIDSLDLTDAQRRKIYHGNATALLGLSL | No
